- experimental.system: Beta-1 adrenergic receptor (Homo sapiens)
- experimental.details: Agonist activity at beta1-adrenergic receptor (unknown origin) expressed in HEK293T cells harboring Rluc2-117-GalphaS/GFP10-Ggamma/Gbeta1 assessed as activation of GalphaS incubated for 5 mins in presence of coelenterazine 400a by BRET assay
- Format: cell-based
- measurement.setup: read-out: pEC50 (converted)
reported.endpoint: log10(EC50) (log10 of the value in µM)
Heads up, the numbers here are log10 of EC50 in µM units.

Entry `COc1cc(CCNC[C@H](O)c2ccc(O)c(O)c2)ccc1OCCCc1ccccc1` , log10(EC50) reported as 0.30

Record `COc1cc(CCNC[C@H](O)COc2ccc(O)c(O)c2)ccc1OCCCc1ccccc1` . Reported log10(EC50): 0.40

Query `COc1ccccc1OCCNC[C@H](O)c1ccc(O)c(O)c1` yields log10(EC50) of -1.40

// log10(EC50) lookup, compound = `CC(C)NC[C@H](O)COc1ccc(O)c(O)c1` , result: -0.20

Sure, the documented log10(EC50) for `COc1ccccc1OCCNC[C@H](O)COc1ccc(O)c(O)c1` is -0.10

---

- experimental.system: UniProt P07550
- experimental.details: Agonist activity at beta2-adrenergic receptor (unknown origin) expressed in HEK293T cells harboring GFP/Rluc2-tagged beta-arrestin2 assessed as increase in beta-arrestin2 recruitment incubated for 5 mins in presence of GSK2 and coelenterazine 400a by BRET assay
- Type: cell-based
reported.endpoint: EC50 (nM)
Please reply with the bare figure in nM and do not write the unit itself.

>>> reported_result("COc1cc(CCNC[C@H](O)c2ccc(O)c(O)c2)ccc1OCCCc1ccccc1")
501
>>> reported_result("CC(C)NC[C@H](O)COc1ccc(O)c(O)c1")
316
>>> reported_result("COc1ccccc1OCCNC[C@H](O)c1ccc(O)c(O)c1")
158

Read the next record carefully.
Given item `COc1ccccc1OCCNC[C@H](O)COc1ccc(O)c(O)c1` , the value recorded as its EC50 is 794

---

- experimental.system: Beta-1 adrenergic receptor (Homo sapiens, UniProt P08588)
- Sequence (P08588 whole entry): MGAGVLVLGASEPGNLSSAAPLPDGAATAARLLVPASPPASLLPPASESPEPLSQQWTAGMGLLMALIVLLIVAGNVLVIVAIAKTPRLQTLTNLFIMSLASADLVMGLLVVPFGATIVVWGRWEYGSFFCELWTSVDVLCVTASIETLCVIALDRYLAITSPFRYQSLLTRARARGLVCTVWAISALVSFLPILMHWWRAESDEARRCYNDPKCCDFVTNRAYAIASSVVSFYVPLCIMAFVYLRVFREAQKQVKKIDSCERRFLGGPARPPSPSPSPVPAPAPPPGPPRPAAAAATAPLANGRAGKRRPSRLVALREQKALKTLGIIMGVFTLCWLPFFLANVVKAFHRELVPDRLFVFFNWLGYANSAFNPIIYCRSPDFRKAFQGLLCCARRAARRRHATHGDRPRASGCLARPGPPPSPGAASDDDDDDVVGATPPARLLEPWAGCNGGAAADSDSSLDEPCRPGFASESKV
- experimental.details: Agonist activity at beta1-adrenergic receptor (unknown origin) expressed in HEK293T cells harboring GFP/Rluc2-tagged beta-arrestin2 assessed as increase in beta-arrestin2 recruitment incubated for 5 mins in presence of GRK5 and coelenterazine 400a by BRET assay
- Assay type: cell-based
reported.endpoint: pEC50
Recall that pEC50 is obtained by taking minus log10 of the concentration measured in molar.

Example cases with answers are listed next.
>>> reported_result("COc1ccccc1OCCNC[C@H](O)c1ccc(O)c(O)c1")
7.29
>>> reported_result("CC(C)NC[C@H](O)COc1ccc(O)c(O)c1")
6.50
>>> reported_result("COc1ccccc1OCCNC[C@H](O)COc1ccc(O)c(O)c1")
6.40
>>> reported_result("COc1cc(CCNC[C@H](O)COc2ccc(O)c(O)c2)ccc1OCCCc1ccccc1")
5.10

Please examine the following record next.
The reported pEC50 value, Beta-1 adrenergic receptor (Homo sapiens, UniProt P08588), for `COc1cc(CCNC[C@H](O)c2ccc(O)c(O)c2)ccc1OCCCc1ccccc1` reads 6.30

---

# collection of pKi values tested on Beta-1 adrenergic receptor (Mus musculus, UniProt P34971)
# Sequence (P34971 whole entry): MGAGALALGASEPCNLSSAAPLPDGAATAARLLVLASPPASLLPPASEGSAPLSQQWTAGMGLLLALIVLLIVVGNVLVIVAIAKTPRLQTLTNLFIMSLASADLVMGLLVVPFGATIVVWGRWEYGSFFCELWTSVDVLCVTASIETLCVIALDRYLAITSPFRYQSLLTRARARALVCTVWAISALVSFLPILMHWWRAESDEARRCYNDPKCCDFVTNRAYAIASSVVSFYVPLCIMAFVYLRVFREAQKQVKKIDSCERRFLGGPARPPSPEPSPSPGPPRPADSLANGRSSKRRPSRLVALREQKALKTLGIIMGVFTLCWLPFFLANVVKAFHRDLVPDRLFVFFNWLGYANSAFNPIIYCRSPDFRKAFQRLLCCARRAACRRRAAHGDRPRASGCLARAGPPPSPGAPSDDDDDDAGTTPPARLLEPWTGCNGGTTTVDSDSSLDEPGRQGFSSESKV
Please report pKi as the negative decimal logarithm of the molar concentration, giving only the number.

The following compounds have reported results that may help.
>>> reported_result("COc1ccccc1OCCNC[C@H](O)COc1ccc(O)c(O)c1")
7.92
>>> reported_result("CC(C)NC[C@H](O)COc1ccc(O)c(O)c1")
7.85
>>> reported_result("COc1cc(CCNC[C@H](O)COc2ccc(O)c(O)c2)ccc1OCCCc1ccccc1")
8.19
>>> reported_result("COc1ccccc1OCCNC[C@H](O)c1cccc2[nH]c3ccccc3c12")
8.18
>>> reported_result("COc1ccccc1OCCNCCCOc1cccc2[nH]c3ccccc3c12")
7.62

Noted for `COc1cc(CCNC[C@@H](O)COc2ccc(O)c(O)c2)ccc1OCCCc1ccccc1` : its pKi reads 6.51

---

Catalogue of pEC50 values
- experimental.system: Beta-2 adrenergic receptor (Homo sapiens, UniProt P07550)
- Sequence (P07550 whole entry): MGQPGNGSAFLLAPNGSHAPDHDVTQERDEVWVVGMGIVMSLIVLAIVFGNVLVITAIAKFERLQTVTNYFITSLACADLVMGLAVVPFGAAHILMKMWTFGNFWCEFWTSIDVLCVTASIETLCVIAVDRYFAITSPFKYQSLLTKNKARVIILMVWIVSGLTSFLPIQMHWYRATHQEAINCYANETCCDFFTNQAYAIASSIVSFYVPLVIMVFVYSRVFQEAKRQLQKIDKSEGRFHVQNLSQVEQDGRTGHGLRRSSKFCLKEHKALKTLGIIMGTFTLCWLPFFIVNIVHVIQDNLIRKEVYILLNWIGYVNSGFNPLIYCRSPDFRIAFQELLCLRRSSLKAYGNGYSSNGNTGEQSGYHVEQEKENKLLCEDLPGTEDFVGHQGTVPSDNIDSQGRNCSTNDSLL
- experimental.details: Agonist activity at beta2-adrenergic receptor (unknown origin) expressed in HEK293T cells harboring Rluc2-117-GalphaS/GFP10-Ggamma/Gbeta1 assessed as activation of GalphaS incubated for 5 mins in presence of coelenterazine 400a by BRET assay
- Assay type: cell-based
Expect pEC50 as a plain number equal to -log10 of the molar concentration.

Would you please look over these solved cases?
>>> reported_result("COc1ccccc1OCCNC[C@H](O)COc1ccc(O)c(O)c1")
4.90
>>> reported_result("COc1ccccc1OCCNC[C@H](O)c1ccc(O)c(O)c1")
7.20
>>> reported_result("COc1cc(CCNC[C@H](O)c2ccc(O)c(O)c2)ccc1OCCCc1ccccc1")
7.00

Query `COc1cc(CCNC[C@H](O)COc2ccc(O)c(O)c2)ccc1OCCCc1ccccc1` yields pEC50 of 4.90

Per the record, `CC(C)NC[C@H](O)COc1ccc(O)c(O)c1` has pEC50 of 6.10

---

Recorded measurements of EC50, one per entry
- experimental.system: Beta-1 adrenergic receptor (Homo sapiens, UniProt P08588)
- experimental.details: Agonist activity at beta1-adrenergic receptor (unknown origin) expressed in HEK293T cells harboring GFP/Rluc2-tagged beta-arrestin2 assessed as increase in beta-arrestin2 recruitment incubated for 5 mins in presence of coelenterazine 400a by BRET assay
- Assay type: cell-based
The answer is to be given in nM; state only the numeric part.

Before answering, review these 4 worked examples.
>>> reported_result("COc1ccccc1OCCNC[C@H](O)COc1ccc(O)c(O)c1")
316
>>> reported_result("COc1cc(CCNC[C@H](O)COc2ccc(O)c(O)c2)ccc1OCCCc1ccccc1")
10000
>>> reported_result("CC(C)NC[C@H](O)COc1ccc(O)c(O)c1")
631
>>> reported_result("COc1ccccc1OCCNC[C@H](O)c1ccc(O)c(O)c1")
79.4

Turning now to a further compound:
compound `COc1cc(CCNC[C@H](O)c2ccc(O)c(O)c2)ccc1OCCCc1ccccc1` , EC50 observed: 794

---

Attribute: EC50
- experimental.system: UniProt:P07550
- experimental.details: Agonist activity at beta2-adrenergic receptor (unknown origin) expressed in HEK293T cells harboring GFP/Rluc2-tagged beta-arrestin2 assessed as increase in beta-arrestin2 recruitment incubated for 5 mins in presence of coelenterazine 400a by BRET assay
- Assay type: cell-based
Return type: number; implicit unit nM.

>>> reported_result("COc1ccccc1OCCNC[C@H](O)c1ccc(O)c(O)c1")
269

Now take the following compound into account.
Lab note: `COc1cc(CCNC[C@H](O)c2ccc(O)c(O)c2)ccc1OCCCc1ccccc1` gave EC50 of 724

---

- experimental.system: Beta-2 adrenergic receptor (Homo sapiens, UniProt P07550)
- experimental.details: Agonist activity at beta2-adrenergic receptor (unknown origin) expressed in HEK293T cells harboring GFP/Rluc2-tagged beta-arrestin2 assessed as increase in beta-arrestin2 recruitment incubated for 5 mins in presence of GSK5 and coelenterazine 400a by BRET assay
- Type: cell-based
pEC50: −log10 of the molar value.
Rule: pEC50 under 6 gives No, otherwise Yes.

For orientation, consider the following solved cases.
>>> group_label("COc1ccccc1OCCNC[C@H](O)COc1ccc(O)c(O)c1")
"Yes"
>>> group_label("CC(C)NC[C@H](O)COc1ccc(O)c(O)c1")
"Yes"
>>> group_label("COc1cc(CCNC[C@H](O)c2ccc(O)c(O)c2)ccc1OCCCc1ccccc1")
"Yes"
>>> group_label("COc1ccccc1OCCNC[C@H](O)c1ccc(O)c(O)c1")
"Yes"

// next entry
Ask: In plain terms: is recorded pEC50 at least 6 for `COc1cc(CCNC[C@H](O)COc2ccc(O)c(O)c2)ccc1OCCCc1ccccc1` ?
Reply: No

---

- experimental.system: Beta-1 adrenergic receptor (Homo sapiens)
- experimental.details: Agonist activity at beta1-adrenergic receptor (unknown origin) expressed in HEK293T cells harboring GFP/Rluc2-tagged beta-arrestin2 assessed as increase in beta-arrestin2 recruitment incubated for 5 mins in presence of GRK2 and coelenterazine 400a by BRET assay
- Format: cell-based
Binarize EC50 at 1000 nM; below is rule met, at or above is rule not met.

Past entries and their recorded results:
>>> group_label("COc1ccccc1OCCNC[C@H](O)COc1ccc(O)c(O)c1")
"rule met"
>>> group_label("COc1cc(CCNC[C@H](O)c2ccc(O)c(O)c2)ccc1OCCCc1ccccc1")
"rule met"
>>> group_label("COc1ccccc1OCCNC[C@H](O)c1ccc(O)c(O)c1")
"rule met"

Continue with the molecule presented below.
Ask: Consider `COc1cc(CCNC[C@H](O)COc2ccc(O)c(O)c2)ccc1OCCCc1ccccc1` . Does its EC50 lie strictly below 1000 nM?
Reply: rule not met
